Tested on: LYPLA2
Assay: serine hydrolase off-target inhibition in mouse brain, late-stage follow-up, selectivity assay for DAGLb inhibitor project, biochemical, gel-based competitive ABPP, mouse brain membrane, set 1 (AID 602311)
Details: gel-based competitive ABPP fluorescence, at 10 µM, active compounds read high
readout-label: inhibition (%)

Past entries and their recorded results:
* O=C(N1CCCCC1Cc1ccccc1)n1cc(-c2ccccc2-c2ccccc2)nn1 (centres undefined) | 10
* O=C(N1CCCCC1Cc1ccccc1)n1cc(-c2ccc(-c3cccc(CO)c3)cc2)nn1 (centres undefined) | 0
* O=C(N1CCCCC1Cc1ccccc1)n1ncc(-c2ccc(OC(F)(F)F)cc2)n1 (centres undefined) | 0
* CC(C)CN(CCc1ccccc1)C(=O)n1cc(-c2ccc(OC(F)(F)F)cc2)nn1 | 0
* O=C(N1CCCCC1Cc1ccccc1)n1cc(-c2ccc(OC(F)(F)F)cc2)nn1 (centres undefined) | 0

I: CC(C)(C)OC(=O)NCCCCCN(CCc1ccccc1)C(=O)n1cc(-c2ccc(OC(F)(F)F)cc2)nn1
II: O=C(N1CCCCC1c1ccccc1)n1cc(C(O)(c2ccccc2)c2ccccc2)nn1 (centres undefined)
Could you tell me which of these two has the smaller inhibition figure? First: I Second: II Mark your selection by writing its label.
I

* * *

Biological target: Monoacylglycerol lipase ABHD6 (Mus musculus)
Test: serine hydrolase off-target inhibition in mouse brain, late-stage follow-up, selectivity assay for DAGLb inhibitor project, biochemical, gel-based competitive ABPP, mouse brain membrane, set 1 (AID 602311)
Conditions: gel-based competitive ABPP fluorescence, at 10 µM, active compounds read high
readout-label: inhibition (%)

- O=C(N1CCCCC1Cc1ccccc1)n1cc(-c2ccc(-c3ccccc3CO)cc2)nn1 (centres undefined): 95
- O=C(N(CCc1ccccc1)Cc1ccco1)n1cc(-c2ccc(OC(F)(F)F)cc2)nn1: 95
- O=C(c1ccc(-c2cn(C(=O)N3CCCCC3Cc3ccccc3)nn2)cc1)N1CCCCC1 (centres undefined): 98
- Cc1ccccc1-c1ccc(-c2cn(C(=O)N3CCCCC3Cc3ccccc3)nn2)cc1 (centres undefined): 98
- COc1ccccc1-c1ccc(-c2cn(C(=O)N3CCCCC3Cc3ccccc3)nn2)cc1 (centres undefined): 85
- O=C(N1CCCCC1Cc1ccccc1)n1ncc(C(O)(c2ccccc2)c2ccccc2)n1 (centres undefined): 85
- O=C(N1CCCCC1c1ccccc1)n1cc(C(O)(c2ccccc2)c2ccccc2)nn1 (centres undefined): 100
- O=C(N1CCCCC1Cc1ccccc1)n1cc(-c2ccc(Br)cc2)nn1 (centres undefined): 90
- O=C(N1CCCCC1Cc1ccccc1)n1cc(-c2ccc(-c3ccccc3OC(F)(F)F)cc2)nn1 (centres undefined): 85

* * *

System: MAGL
Test: serine hydrolase off-target inhibition in mouse brain, late-stage follow-up, selectivity assay for DAGLb inhibitor project, biochemical, gel-based competitive ABPP, mouse brain membrane, set 1 (AID 602311)
Conditions: gel-based competitive ABPP fluorescence, at 10 µM, active compounds read high
readout-label: inhibition (%)

Illustrative cases are given below, each with its answer.
• O=C(N1CCCCC1Cc1ccccc1)n1cc(-c2ccc(-c3ccccc3)cc2)nn1 (stereo not given) = 0
• O=C(N1CCCCC1Cc1ccccc1)n1ncc(C(O)(c2ccccc2)c2ccccc2)n1 (stereo not given) = 0

1: O=C(N1CCCCC1Cc1ccccc1)n1cc(-c2ccc(-c3ccccc3OC(F)(F)F)cc2)nn1 (stereo not given)
2: O=C(N1CCCCC1Cc1ccccc1)n1cc(-c2ccc(-c3ccccc3CO)cc2)nn1 (stereo not given)
Which value of inhibition is smaller, the one for 1 or the one for 2 ? Lab note: record the label of whichever item you select.
1
(1: 60%, 2: 95%)

* * *

Target: UniProt:P97823
Sequence (P97823 whole entry, looked up): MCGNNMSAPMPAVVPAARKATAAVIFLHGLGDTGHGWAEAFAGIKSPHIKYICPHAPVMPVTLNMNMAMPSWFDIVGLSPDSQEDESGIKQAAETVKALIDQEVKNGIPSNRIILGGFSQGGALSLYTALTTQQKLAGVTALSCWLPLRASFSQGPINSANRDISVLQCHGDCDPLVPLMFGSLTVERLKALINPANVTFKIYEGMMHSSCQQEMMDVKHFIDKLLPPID
Experiment: serine hydrolase off-target inhibition in mouse brain, late-stage follow-up, selectivity assay for DAGLb inhibitor project, biochemical, gel-based competitive ABPP, mouse brain membrane, set 1 (AID 602311)
Details: gel-based competitive ABPP fluorescence, LYPLA1, at 10 µM, active compounds read high
readout-label: inhibition (%)

See these solved cases before continuing.
- O=C(N1CCCCC1Cc1ccccc1)n1cc(-c2ccc(-c3ccccc3C(F)(F)F)cc2)nn1 (centres undefined): 0
- O=C(N1CCCCC1Cc1ccccc1)n1ncc(C(O)(c2ccccc2)c2ccccc2)n1 (centres undefined): 0
- O=C(N1CCCCC1Cc1ccccc1)n1cc(-c2ccc(-c3ccccc3)cc2)nn1 (centres undefined): 0
- COc1ccccc1-c1ccc(-c2cn(C(=O)N3CCCCC3Cc3ccccc3)nn2)cc1 (centres undefined): 0
- CC(C)(C)OC(=O)NCCCCCN(CCc1ccccc1)C(=O)n1cc(-c2ccc(OC(F)(F)F)cc2)nn1: 0
- O=C(N1CCCCC1Cc1ccccc1)n1cc(-c2ccc(Br)cc2)nn1 (centres undefined): 0

1: O=C(N1CCCCC1Cc1ccccc1)n1cc(-c2ccc(-c3cccc(C(F)(F)F)c3)cc2)nn1 (centres undefined)
2: O=C(N1CCCCC1Cc1ccccc1)n1cc(-c2ccc(-c3ccccc3CO)cc2)nn1 (centres undefined)
3: O=C(N1CCCCC1Cc1ccccc1)n1cc(-c2cc(F)cc(F)c2)nn1 (centres undefined)
Descending sort on inhibition required. Give me the labels in the order the question wants.
3, 2, 1

* * *

Test system: MAGL
Test: serine hydrolase off-target inhibition in mouse brain, late-stage follow-up, selectivity assay for DAGLb inhibitor project, biochemical, gel-based competitive ABPP, mouse brain membrane, set 1 (AID 602311)
Conditions: gel-based competitive ABPP fluorescence, at 10 µM, active compounds read high
readout-label: inhibition (%)

1: O=C(N1CCCCC1Cc1ccccc1)n1cc(-c2cccc(-c3ccccc3)c2)nn1 (stereo unspecified)
2: O=C(N1CCCCC1Cc1ccccc1)n1cc(-c2ccc(-c3cccc(C(F)(F)F)c3)cc2)nn1 (stereo unspecified)
3: O=C(c1ccc(-c2ccc(-c3cn(C(=O)N4CCCCC4Cc4ccccc4)nn3)cc2)cc1)N1CCCCC1 (stereo unspecified)
Order the records so the highest inhibition appears first and the lowest last. Write the labels out in the order the request specifies.
1, 2, 3

I: COc1ccccc1-c1ccc(-c2cn(C(=O)N3CCCCC3Cc3ccccc3)nn2)cc1 (stereo unspecified)
II: O=C(N1CCCCC1Cc1ccccc1)n1cc(-c2ccc(-c3cccc(CO)c3)cc2)nn1 (stereo unspecified)
Among I and II , whose measured inhibition is the smaller figure? Your choice should be expressed through its label.
II
(II: 10%, I: 70%)

a: O=C(N1CCCCC1Cc1ccccc1)n1cc(-c2ccc(-c3ccc(C(F)(F)F)cc3)cc2)nn1 (stereo unspecified)
b: O=C(N1CCCCC1Cc1ccccc1)n1cc(-c2ccc(-c3ccc(OC(F)(F)F)cc3)cc2)nn1 (stereo unspecified)
Could you check which of a and b has a smaller value for inhibition? Identify your selection by its label.
b
(b: 0%, a: 10%)

* * *

Molecular target: Acyl-protein thioesterase 1 (Mus musculus)
Assay: serine hydrolase off-target inhibition in mouse brain, late-stage follow-up, selectivity assay for DAGLb inhibitor project, biochemical, gel-based competitive ABPP, mouse brain membrane, set 1 (AID 602311)
Conditions: gel-based competitive ABPP fluorescence, LYPLA1, at 10 µM, active compounds read high
readout-label: inhibition (%)

Sample records with inhibition:
- O=C(N1CCCCC1Cc1ccccc1)n1cc(-c2ccc(-c3ccc(C(F)(F)F)cc3)cc2)nn1 (stereo not given): 0
- O=C(N1CCCCC1Cc1ccccc1)n1ncc(-c2ccc(OC(F)(F)F)cc2)n1 (stereo not given): 0
- O=C(N1CCCCC1Cc1ccccc1)n1cc(-c2ccc(-c3ccccc3OC(F)(F)F)cc2)nn1 (stereo not given): 0

1: O=C(c1ccc(-c2ccc(-c3cn(C(=O)N4CCCCC4Cc4ccccc4)nn3)cc2)cc1)N1CCCCC1 (stereo not given)
2: O=C(N1CCCCC1c1ccccc1)n1cc(C(O)(c2ccccc2)c2ccccc2)nn1 (stereo not given)
I need your help: which of the pair 1 , 2 has higher inhibition? Pick one and reply with its label.
2
(2: 100%, 1: 0%)

* * *

Tested on: FAAH
Test: serine hydrolase off-target inhibition in mouse brain, late-stage follow-up, selectivity assay for DAGLb inhibitor project, biochemical, gel-based competitive ABPP, mouse brain membrane, set 1 (AID 602311)
Conditions: gel-based competitive ABPP fluorescence, at 10 µM, active compounds read high
readout-label: inhibition (%)

# count of solved cases: 3
- O=C(N(CCc1ccccc1)Cc1ccco1)n1cc(-c2ccc(OC(F)(F)F)cc2)nn1: 95
- O=C(N1CCCCC1Cc1ccccc1)n1ncc(C(O)(c2ccccc2)c2ccccc2)n1 (centres undefined): 0
- O=C(N1CCCCC1Cc1ccccc1)n1cc(-c2ccc(-c3ccccc3OC(F)(F)F)cc2)nn1 (centres undefined): 45

A: COc1ccccc1-c1ccc(-c2cn(C(=O)N3CCCCC3Cc3ccccc3)nn2)cc1 (centres undefined)
B: O=C(N1CCCCC1c1ccccc1)n1cc(C(O)(c2ccccc2)c2ccccc2)nn1 (centres undefined)
C: CC(C)CN(CCc1ccccc1)C(=O)n1cc(-c2ccc(OC(F)(F)F)cc2)nn1
D: O=C(N1CCCCC1Cc1ccccc1)n1cc(-c2ccc(Br)cc2)nn1 (centres undefined)
E: O=C(N1CCCCC1Cc1ccccc1)n1cc(-c2ccc(-c3ccccc3Cl)cc2)nn1 (centres undefined)
Please produce an ascending ranking of these molecules based on inhibition. Order the labels as requested and list them.
C, A, E, B, D
(C: 0%, A: 10%, E: 30%, B: 55%, D: 90%)

Data origin, for the record: PubChem BioAssay AID602311
